# experimental_target: T1, activated Protein C (APC) (human, UniProt P04070 43-197; P04070 212-461)
# T1 construct: also called human plasma APC
# T1 sequence (P04070 43-197, chain 1 of 2): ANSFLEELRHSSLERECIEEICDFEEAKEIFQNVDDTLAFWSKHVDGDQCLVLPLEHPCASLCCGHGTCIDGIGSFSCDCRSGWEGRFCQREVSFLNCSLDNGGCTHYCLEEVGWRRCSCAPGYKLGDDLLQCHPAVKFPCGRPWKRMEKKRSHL
# T1 sequence (P04070 212-461, chain 2 of 2): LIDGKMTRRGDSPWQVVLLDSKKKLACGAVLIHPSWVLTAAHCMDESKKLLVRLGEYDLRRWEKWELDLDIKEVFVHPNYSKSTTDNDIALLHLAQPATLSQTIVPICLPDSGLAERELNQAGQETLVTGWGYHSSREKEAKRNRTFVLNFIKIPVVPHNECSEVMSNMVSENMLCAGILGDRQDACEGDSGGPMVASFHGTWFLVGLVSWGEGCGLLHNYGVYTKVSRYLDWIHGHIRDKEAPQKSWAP
# protocol_details: preliminary pseudo-first-order inhibition kinetics, residual chromogenic activity
measured_property: second-order rate constant of inhibition (M⁻¹ s⁻¹)

# binder, value
records = [
    ("A22 D8 PCI (P4QP2RP1′N) (other, As A22 WT PCI) APSSRRDFTFDLYRALASAAPSQNIFFSPVSISMSLAMLSLGAGSSTKMQILEGLGLNLQKSSEKELHRGFQQLLQELNQPRDGFQLSLGNALFTDLVVDLQDTFVSAMKTLYLADTFPTNFRDSAGAMKQINDYVAKQTKGKIVDLLKNLDSNAVVIMVNYIFFKAKWETSFNHKGTQEQDFYVTSETVVRVPMMSREDQYHYLLDRNLSCRVVGVPYQGNATALFILPSEGKMQQVENGLSEKTLRKWLKMFKKRQLELYLPKFSIEGSYQLEKVLPSLGISNVFTSHADLSGISNHSNIQVSEMVHKAVVEVDESGTRAAAATGTIQTRRNARLNSQRLVFNRPFLMFIVDNNILFLGKVNRP", 1000),
]
